- System: LXRa:RXRa (NR concentration 270 nM, RXRa partner concentration 90 nM)
- TEST DETAILS: PBM binding z-score (relative to random genomic background probes); higher = stronger binding; sequences stand for … in GC…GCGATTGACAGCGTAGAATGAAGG
Each entry gets class 0 if its PBM binding z-score stays under 1, and class 1 if its PBM binding z-score is 1 or above.

// known answers, use as guide
# QUERY SEQUENCE, MEASURED ON, CAT
rows = [
    ("TCATATAGGCAAAGGTGAAAGTCGAACGATATGA", "LXRa:RXRa (NR concentration 270 nM, RXRa partner concentration 90 nM)", "class 1"),
    ("CCTACTGGGCCAAACAGGTCATTGATGCCGATAA", "LXRa:RXRa (NR concentration 270 nM, RXRa partner concentration 90 nM)", "class 0"),
    ("TCATATAGGTAAACAGGTGAACGTCCGTAAGTTA", "LXRa:RXRa (NR concentration 270 nM, RXRa partner concentration 90 nM)", "class 1"),
    ("ACTATTAGTTGAGACGAGTGCAACCGATAGGTTG", "LXRa:RXRa (NR concentration 270 nM, RXRa partner concentration 90 nM)", "class 0"),
    ("ATATGTAGGTTATCGGGTCATTTAGTTTGCGCAT", "LXRa:RXRa (NR concentration 270 nM, RXRa partner concentration 90 nM)", "class 1"),
]

Q: Is it the case that "ACTAGCAGGCCAAGTGTCACTCAAGATTAGTCCG" has PBM binding z-score reaching or exceeding 1?
Result: class 0

Q: Further, for "ATATCTAGGTTATCGGGTCATTCAGTTTGCGCAT" ?
Result: class 1

Q: Moving on to "CGAACGAGGGCATGAGTTGATAGAAAATGCCGAT"
Result: class 0

Q: Also check "CCTTACGGGTCACTCGAGGTTATAGCATCGGAGT"
Result: class 1

Q: Try this sequence next: "TCTAGCAGGCCAGAGGGTCACTTAAGAGGTACGG"
Result: class 0

Q: // same read-out, input: "GCTAGTTGGTCAGTACAAGGTCACACACCGGTCG"
Result: class 1

Q: Now this one: "TCTCGGAGGACACGAAGGTTAGAGCTTTCCAGAG"
Result: class 0

Q: Do the same for "CAAACTAGGTCACAGAAGTCAAAGTCCGTGCGTA" please
Result: class 1

Q: Entry to check: "TCTTGTAGATCAAGCAGGTTAAGACAGCCTGAGT"
Result: class 0

Q: Next up: "CAGCCTAGGTCAGGGCCATTATAGGAGGAACGTT"
Result: class 1

Q: Please do the same for "ACAGACAGGTGAGTGAAGGTAGCTCAGCTGGACG" as well.
Result: class 0

Q: Thanks! And "AGAACGGGGGCAATGAGTTGATAGCACGGGTGGC" ?
Result: class 1

Q: Let us now turn to "CTACCAAGGTGAACAAGATCGTTGATTACTATTC"
Result: class 0

Q: Note, next up: "CCTACTGGGCCAAATGTCATTGATTCCAATGCTC"
Result: class 0

Q: Also, "CAAACTAGGTCACCGGAAGGTCCAAGTCCGCATG" please.
Result: class 1

Q: Now consider "GGAACGAGGGCAAGTTGAGAGCAGAGTTTGATGG" .
Result: class 0

----------
- System: VDR homodimer (NR concentration 270 nM)
- TEST DETAILS: PBM binding z-score (relative to random genomic background probes); higher = stronger binding; sequences stand for … in GC…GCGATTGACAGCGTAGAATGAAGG
Think of 0.3 as a floor: if PBM binding z-score stands on it or above, it is met; beneath it, not met.

Worked set:
# QUERY SEQUENCE, CAT
records = [
    ("CGCACTAGGTCAAGGACAGTGAATCTCCGCACGC", "met"),
    ("TCATATAGGTAACCAGGTGAAAGTCCGTAAGTTA", "not met"),
    ("CAAACTAGGTCACGAAAGCTCAAAGTCGAATGAC", "met"),
    ("ATCGAAAGGTCGAGGTGAGTCTAGAGAAAGGGAA", "met"),
]

Kindly consider the entry below.
Q: Is reported PBM binding z-score greater than or equal to 0.3 here: "GCTATTTGGTCAGTAAAAGGTCACACACCGGTCG"
Result: met

----------
- Test system: RARb homodimer (NR concentration 270 nM)
- TEST DETAILS: PBM binding z-score (relative to random genomic background probes); higher = stronger binding; sequences stand for … in GC…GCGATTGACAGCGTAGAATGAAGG
Label scheme for PBM binding z-score: b0 = under 1, b1 = from 1 up to 2, b2 = 2 and over

# QUERY SEQUENCE, CAT
measured = [
    ("TGTCATAGTTCAAAGGTAACGTAAGTATCCACAC", "b2"),
    ("ATATGTAGGTTATCGGGTCATTGAGTTTGCGCAT", "b2"),
    ("ACTATTAGTTGAGACGAGGGCAACCGTTAGGTTG", "b1"),
    ("GCGACTGGGGCAAAGCAGGTTAACATAAGGTTGG", "b1"),
]

Q: The entry to classify is "ATCTCTAAGTAACCAAGTTCAGTGAATGCCGAAC" ; which class holds it?
Result: b1

Q: Further, for "CCGACTGGGGCAGGAAGGTTACCATACCATCCGG" ?
Result: b1

----------
- Tested on: LXRa homodimer (NR concentration 270 nM)
- TEST DETAILS: PBM binding z-score (relative to random genomic background probes); higher = stronger binding; sequences stand for … in GC…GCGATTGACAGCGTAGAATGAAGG
I would appreciate it if you labelled entries Satisfied when PBM binding z-score is 3 or higher, otherwise Not satisfied.

Q: Is it the case that "TCTGCTAGGTCAACGAAGGTCAGCTAATCTGCTA" has PBM binding z-score reaching or exceeding 3?
Result: Not satisfied

Q: Now the sequence "TCTCGGAGGACACGTAGGTCAGAGCTTTCCAGAG"
Result: Not satisfied

Q: One more sequence: "ATATGTAGGTTATCGGGTCGTTCAGTTTGCGCAT"
Result: Not satisfied

Q: Thanks! And "ACTTGCAGGCCAAGGGTCACTCAAGATTAGTCCG" ?
Result: Not satisfied

Q: Next up: "CCTACTGGGTCAAAAAGGTCATTGATGCCGATAA"
Result: Satisfied

Q: Queued: "TCTGCCAGGTCAGTTGGTCAGCTAACGAGCTGCC"
Result: Not satisfied

----------
- Tested on: FXR:RXRa (NR concentration 270 nM, RXRa partner concentration 90 nM)
- TEST DETAILS: PBM binding z-score (relative to random genomic background probes); higher = stronger binding; sequences stand for … in GC…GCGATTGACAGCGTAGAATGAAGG
MEASURED ENDPOINT: PBM binding z-score

# QUERY SEQUENCE, PBM binding z-score
rows = [
    ("TCTATTAGTTGAGGGGCAACCGACGAGTCCGTTT", 0.999),
    ("AGTCAAAGTTCACAAGGTAACGTAAGATTCAGCT", 6.12),
    ("ATCTCTAGGTAAAAGTCCAGTGAATCCCGAGGAT", 0.192),
]

Q: Find the recorded PBM binding z-score belonging to "ACTCGGAGGACAAAGGTTAGAGCTACGCCAGTGA" and report it.
Result: 0.928

Q: Please do the same for "AGAACGAGGGCAATGAGTTGATAGCGCGGGTGGC" as well.
Result: 0.136

Q: What do you have for "CCTCGGAGGAGAGAAGGTCAGAGCTGTCCGCTTT" ?
Result: 0.811

Q: Note, next up: "GCGACTGGGGCAAAGCAGGTGACCATAAGGTTGG"
Result: -0.334

Q: Check "ACAGACAGATGAGTGAAGGTAACTCAGCTGGACG" too.
Result: 0.536

Q: Query "TCTGCTAGGTCACCGATGGTCAGCTAATCTGCTA" next
Result: 3.75

Q: Another sequence: "CCGACTGGGCCAAGGTTACCATAACGCACAGCCA"
Result: 0.00014

Q: Consider next the sequence "CCTACTGGGCCACGAAAGGTCATGGATTCAGTGA" in the same way.
Result: 3.62

Q: Ok, now "TGAATGAGGTCATAAGATCAGGGAACGTTGCAAA"
Result: 7.31

----------
- System: PPARg:RXRa 30nM:10nM, anti-RXR (NR concentration 30 nM, RXRa partner concentration 10 nM)
- TEST DETAILS: PBM binding z-score (relative to random genomic background probes); higher = stronger binding; sequences stand for … in GC…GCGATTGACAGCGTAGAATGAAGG
MEASURED ENDPOINT: PBM binding z-score
Enter a number only.

# QUERY SEQUENCE, PBM binding z-score
rows = [
    ("TCTAGTGGGTCACGGAGGTCACACACGACGGGTA", 5.61),
    ("TCTGCTAGGTCAGTTGGTCAGCTGACGAGCTGCC", 1.08),
    ("GCTAGTTGGTCGGTAAAAGGTCACACACCGGTCG", 4.85),
    ("ACTAGTTGGTCGGCTGAGGTCACACACAATTCGG", 0.45),
    ("AACTCTAGGTAAAGTTCAGTGAAAGATCGATAGA", 2.77),
    ("CCTAGTTGATCAAGGTCACACACGCTATAGGTAC", 1.28),
    ("TCATATAGGTAAAAGGTGAAAGTAGGTGTGGTAA", 8.11),
    ("CCGACTGGGGCAGAGGTTACCATACTCAGTACGA", 6.11),
    ("TCTGCTAGGACAGTTGGTCAGCTAACGAGCTGCC", 0.654),
    ("AATACAGGGTCACTAGGCCAGAGTAGGTACGAAT", 3.56),
]

Q: May I ask what PBM binding z-score has been recorded for "TCATGTAGATCAGCAGGTTAAGAAAGCTGGCCAA" ?
Result: 2.67

Q: Then this sequence: "AGAATGAGGATATTAAGATCAGGGAATTGCGGTC"
Result: -0.0325

Q: Could you do the same for "CGTTCAAGGTCAGAGAGGTCAGTGAATGCCGAGT" , please?
Result: 1.58

Q: Cool, now "CCTTACGGGTCAGTCCAGGTTATAGCATCGGAGT"
Result: 0.319

Q: Quick one: "CAAACTAGGTCTCGAAAGGTCAAAGTCGAATGAC"
Result: 2.94

Q: Similarly, "ATCTCTCGGTAAGACTCAGTTCAGTGAAGAACGC" ?
Result: 0.114

Q: Now this one: "ATATGTCGGTTACATCCGGGTCATTCAGGCTATG"
Result: 0.573

Q: How about "ATCGAGAGGTCGTGAGGTGAGTATACAGAAAGGC" ?
Result: 0.76

Q: Queued: "CCTTACGGGTCACGCCAGGTTATAGCATCGGAGT"
Result: 2.72

Q: Now give it for "GGAACGAGGGCATGTTGATAGCAGAGTTTGATGG" too.
Result: 0.0112

Q: How about "TGAATGAGGTTATAAGATCAGGGAGCGTTGCAAA" ?
Result: 0.643

Q: Then "TAGCCTAGCTCAGATCGGGCCAGTATACGCTATA" ?
Result: -0.749

Q: Another sequence to look at: "TCTCGGAGGACACGAAAGGCCAGAGCTCGACATC"
Result: 1.86

Q: // same read-out, input: "TCGAGTAGGTTACCAATGGGTCATTCAGCTTTCT"
Result: 1.5

Q: Lookup "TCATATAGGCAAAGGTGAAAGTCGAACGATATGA"
Result: 3.88

Q: Another sequence to look at: "AGTCAAAGTTAACTAGGTAACGTAAGATTCAGCT"
Result: 0.593

Q: Now try "CCTAGCAGGTCAATCTGGGTCACTCAAGGCTTGA" .
Result: 2.13

Q: Next entry: "ATCTCTAGGTAACCACGTTCAGTGAATGCCGAAC"
Result: 0.0771

Q: Now try "GCTAGGAGGACAAGGTCAGAGCTTTGTCCGTAGA" .
Result: -0.224

Q: Next up: "CCTCGGAGGACCGAAGGTCAGAGCTGTCCGCTTT"
Result: -0.716

Q: Now give it for "TAGCCTGGGTCATTGGGCCAGTATAGTACGCATC" too.
Result: 0.89

Q: Again, but for "CGAACTAGGTCATCCTGGACAGTGAATACATTGA"
Result: 3.97

Q: "CGAATTAGGTCAAGGACAGTGAATCTCCGCACGC" ?
Result: 3.82

Q: How about this sequence: "CGTCCAAGGTCAGAGAGGTCAGTGAATGCCGAGT"
Result: 0.873

Q: Follow-up item: "CGTCCAAGGTCATAGGAGGTCAGAGAAGACAGAT"
Result: 2.71

Where do the numbers come from? From the supplement of paper PMC6555819.
